pIC50 values by entry
Tested on: CCRF-CEM
protocol: Cytotoxicity against human CCRF-CEM cells assessed as reduction in cell viability after 72 hrs by resazurin dye-based fluorescence assay
Format: functional
Note on units: pIC50 is unitless, being -log10 of a concentration expressed in mol/L.

[[record]]
molecule = "C[C@@]12O[C@H]3C[C@@H](O1)[C@]1(C=O)[C@H]4CC[C@]5(C)[C@@H](c6ccc(=O)oc6)CC[C@]5(O)[C@@H]4CC[C@@]1(C3)O2"
reported_result = 6.70

[[record]]
molecule = "C[C@@]12O[C@H]3C[C@@H](O1)[C@]1(C=O)[C@H]4CC[C@@]5(C)[C@@H]([C@@H]4CC[C@@]1(C3)O2)[C@@H]1O[C@@H]1[C@@H]5c1ccc(=O)oc1"
reported_result = 5.80

[[record]]
molecule = "CC(=O)O[C@H]1C[C@]2(C=O)[C@H]3CC[C@]4(C)[C@@H](c5ccc(=O)oc5)CC[C@]4(O)[C@@H]3CC[C@]2(OC(C)=O)C[C@H]1OC(C)=O"
reported_result = 7.00

[[record]]
molecule = "CC(=O)O[C@H]1C[C@]2(C=O)[C@H]3CC[C@]4(C)[C@@H](c5ccc(=O)oc5)CC[C@]4(O)[C@@H]3CC[C@]2(O)C[C@H]1OC(C)=O"
reported_result = 6.30

[[record]]
molecule = "CC(=O)O[C@H]1[C@H]2O[C@@]3(C)O[C@@H]1C[C@]1(CC[C@H]4[C@H]5[C@@H]6O[C@@H]6[C@H](c6ccc(=O)oc6)[C@@]5(C)CC[C@@H]4[C@@]21C=O)O3"
reported_result = 5.80


Lab note: C[C@@]12O[C@H]3C[C@@H](O1)[C@]1(C=O)[C@H]4CC[C@]5(C)[C@@H](c6ccc(=O)oc6)[C@@H](O)C[C@]5(O)[C@@H]4CC[C@@]1(C3)O2 gave pIC50 of 6.22

Lab note: COc1cccc2c1C(=O)c1c(O)c3c(c(O)c1C2=O)C[C@@](O)(C(=O)CO)C[C@@H]3O[C@H]1C[C@H](N)[C@H](O)[C@H](C)O1 [DOXORUBICIN] gave pIC50 of 7.70
